target: Serine/threonine-protein phosphatase PP1-alpha catalytic subunit (Homo sapiens) (UniProt P62136); assay: PP1alpha phosphatase inhibition, late-stage follow-up, selectivity assay for PP5 inhibitor project, biochemical, OMFP substrate, fluorescence, powder samples, round 5 (AID 624436); conditions: purified PP1alpha, OMFP dephosphorylation fluorescence; at 50 µM; hits give high values
Sequence (P62136 whole entry, looked up): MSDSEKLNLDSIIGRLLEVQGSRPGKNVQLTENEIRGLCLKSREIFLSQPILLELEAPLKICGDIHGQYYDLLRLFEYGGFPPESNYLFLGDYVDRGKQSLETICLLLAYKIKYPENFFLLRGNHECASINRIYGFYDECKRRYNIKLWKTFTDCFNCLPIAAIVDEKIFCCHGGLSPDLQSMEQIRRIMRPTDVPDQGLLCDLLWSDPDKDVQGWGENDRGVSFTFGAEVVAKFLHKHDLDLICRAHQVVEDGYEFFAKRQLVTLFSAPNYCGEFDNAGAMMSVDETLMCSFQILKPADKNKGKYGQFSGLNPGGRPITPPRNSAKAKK
measured-metric: inhibition (%)

- chemical-string: "CCOc1ccccc1-c1n[nH]nc1C(=O)O"
  uom: "%"
  assay-result: 15.5
- chemical-string: "CCc1ccccc1-c1n[nH]nc1C(=O)O"
  uom: "%"
  assay-result: 2.41

(I) O=C(O)c1[nH]ccc1-c1ccccc1
(II) O=C(O)c1n[nH]nc1-c1ccccn1
**Query** Hey, between I and II which has a smaller measured inhibition? Refer to your chosen entry by its label in the reply.
**Result** I

* * *

target: Serine/threonine-protein phosphatase PP1-alpha catalytic subunit (Homo sapiens); assay: PP1alpha phosphatase inhibition, late-stage follow-up, selectivity assay for PP5 inhibitor project, biochemical, OMFP substrate, fluorescence, powder samples, round 5 (AID 624436); details: purified PP1alpha, OMFP dephosphorylation fluorescence; at 50 µM; hits give high values
measured-metric: inhibition (%)

- chemical-string: "Cc1cccc(C)c1-c1n[nH]nc1C(=O)O"
  assayed-target: "Serine/threonine-protein phosphatase PP1-alpha catalytic subunit (Homo sapiens)"
  inhibition [%]: 6.84
- chemical-string: "CC(C)c1ccccc1-c1n[nH]nc1C(=O)O"
  assayed-target: "Serine/threonine-protein phosphatase PP1-alpha catalytic subunit (Homo sapiens)"
  inhibition [%]: 3.75
- chemical-string: "O=C(O)c1n[nH]nc1-c1ccccc1C(F)(F)F"
  assayed-target: "Serine/threonine-protein phosphatase PP1-alpha catalytic subunit (Homo sapiens)"
  inhibition [%]: 7

(a) O=C(O)c1n[nH]nc1-c1cccnc1
(b) Cc1ccccc1-c1n[nH]nc1C(=O)O
(c) O=C(O)c1n[nH]nc1-c1ccccc1-c1ccccc1
**Query** Arrange by inhibition, high to low. Quick reminder: the answer is the labels in the order asked.
**Result** b, a, c
(b: 10.4%, a: 1.43%, c: 0.415%)
